test system: RARa homodimer (NR concentration 270 nM); assay: PBM binding z-score (relative to random genomic background probes); higher = stronger binding; sequences stand for … in GC…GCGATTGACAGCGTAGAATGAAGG
Readout Label: PBM binding z-score

Chain | Readout Label | Recorded Measurement
AATACAGGGTCACTAGGCCAGAGAAGGTACGAAT | PBM binding z-score | 0.823
CGTCCAAGGTCCGAGAGGTCAGTGAATGCCGAGT | PBM binding z-score | 0.494
ACAGACAGGTGATGAAAGTAACTCAGGCTATCAT | PBM binding z-score | -0.762
TGAATGAGGTTAAACATCAGGGAACGTGGCGTCG | PBM binding z-score | 0.112
TTACCAAGGTGGGCTGAGGTCGTTGATCCAACTC | PBM binding z-score | 0.0238
GCGACTGGGGCATCAGCACGTTACCATAACTTAA | PBM binding z-score | -0.0529
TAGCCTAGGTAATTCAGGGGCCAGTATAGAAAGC | PBM binding z-score | -0.299
ATCGAAAGGACGAAGGTGAGTATACCCACCCGAA | PBM binding z-score | 0.0942
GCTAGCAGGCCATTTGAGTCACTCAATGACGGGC | PBM binding z-score | -1.15

Recorded values, source the supplement of paper PMC6555819.
